testedSystem: T1, B7-H3 on tumour cells (MDA-MB-468 cells, N87 cells) (UniProt Q5ZPR3 29-534, limits assumed)
T1 construct: whole, on cells
T1 sequence (looked up): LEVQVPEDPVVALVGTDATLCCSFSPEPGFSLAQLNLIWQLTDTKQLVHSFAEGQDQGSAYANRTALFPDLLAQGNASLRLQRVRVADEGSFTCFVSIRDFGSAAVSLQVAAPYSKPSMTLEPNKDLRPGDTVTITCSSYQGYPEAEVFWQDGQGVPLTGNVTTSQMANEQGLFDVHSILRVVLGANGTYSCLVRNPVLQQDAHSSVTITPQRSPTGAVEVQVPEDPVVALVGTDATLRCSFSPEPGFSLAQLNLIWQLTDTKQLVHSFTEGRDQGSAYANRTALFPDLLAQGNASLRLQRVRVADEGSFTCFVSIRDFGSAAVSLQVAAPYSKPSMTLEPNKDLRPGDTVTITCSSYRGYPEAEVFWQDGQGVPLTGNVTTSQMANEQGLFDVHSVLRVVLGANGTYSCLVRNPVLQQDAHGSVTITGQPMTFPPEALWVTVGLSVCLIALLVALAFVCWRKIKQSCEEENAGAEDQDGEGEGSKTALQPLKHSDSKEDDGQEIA
assayOverview: flow cytometry on MDA-MB-468 cells, PE goat anti-human IgG Fc secondary; blank 0.9% in the positive gate
% of cells in positive gate V1-R at 0.411 nM reference
recordedMetric: % of cells in positive gate V1-R at 0.411 nM

binder	assayValue
antibody V3 (antibody, human IgG1, kappa, V domains shown, Humanized from chimeric antibody M1; expressed in HEK293F cells; also called humanized antibody V3) VH: EVQLVQSGAEVKKSGESLKISCKASGYTFTDYDINWVRQMPGKGLEWIGWIFPGDDTTKYNEKFKGQVTLSADKSTNTAYMQWSSLKASDTAMYYCARSPSFDYWGQGTLVTVSS VL: QIVLTQSPGTLSLSPGERATLSCSASSTIGFMYWYQQKPGQAPRRWIYDTSKLASGVPDRFSGSGSGTDYTLTISRLEPEDFAVYYCHQRSSYPTFGQGTKVEIKR	36.8%
antibody V5 (antibody, human IgG1, kappa, V domains shown, Humanized from chimeric antibody M1; expressed in HEK293F cells; also called humanized antibody V5) VH: QVQLVQSGAEVKKPGASVKVSCKASGYTFTDYDINWVRQAPGQRLEWIGWIFPGDDTTKYNEKFKGRATLTADKSASTAYMELSSLRSEDTAVYYCARSPSFDYWGQGTLVTVSS VL: QIVLTQSPSSLSASVGDRVTITCSASSTIGFMYWYQQKPGKAPKRWIYDTSKLASGVPSRFSVSGSGTDYTLTISSLQPEDFATYYCHQRSSYPTFGQGTKVEIKR	31.6%
